# assayedSystem: Mutant EGFR (L858R) protein (Homo sapiens, UniProt P00533, L858R)
# Construct: Carna Biosciences)
# Sequence (P00533 25-1210 L858R): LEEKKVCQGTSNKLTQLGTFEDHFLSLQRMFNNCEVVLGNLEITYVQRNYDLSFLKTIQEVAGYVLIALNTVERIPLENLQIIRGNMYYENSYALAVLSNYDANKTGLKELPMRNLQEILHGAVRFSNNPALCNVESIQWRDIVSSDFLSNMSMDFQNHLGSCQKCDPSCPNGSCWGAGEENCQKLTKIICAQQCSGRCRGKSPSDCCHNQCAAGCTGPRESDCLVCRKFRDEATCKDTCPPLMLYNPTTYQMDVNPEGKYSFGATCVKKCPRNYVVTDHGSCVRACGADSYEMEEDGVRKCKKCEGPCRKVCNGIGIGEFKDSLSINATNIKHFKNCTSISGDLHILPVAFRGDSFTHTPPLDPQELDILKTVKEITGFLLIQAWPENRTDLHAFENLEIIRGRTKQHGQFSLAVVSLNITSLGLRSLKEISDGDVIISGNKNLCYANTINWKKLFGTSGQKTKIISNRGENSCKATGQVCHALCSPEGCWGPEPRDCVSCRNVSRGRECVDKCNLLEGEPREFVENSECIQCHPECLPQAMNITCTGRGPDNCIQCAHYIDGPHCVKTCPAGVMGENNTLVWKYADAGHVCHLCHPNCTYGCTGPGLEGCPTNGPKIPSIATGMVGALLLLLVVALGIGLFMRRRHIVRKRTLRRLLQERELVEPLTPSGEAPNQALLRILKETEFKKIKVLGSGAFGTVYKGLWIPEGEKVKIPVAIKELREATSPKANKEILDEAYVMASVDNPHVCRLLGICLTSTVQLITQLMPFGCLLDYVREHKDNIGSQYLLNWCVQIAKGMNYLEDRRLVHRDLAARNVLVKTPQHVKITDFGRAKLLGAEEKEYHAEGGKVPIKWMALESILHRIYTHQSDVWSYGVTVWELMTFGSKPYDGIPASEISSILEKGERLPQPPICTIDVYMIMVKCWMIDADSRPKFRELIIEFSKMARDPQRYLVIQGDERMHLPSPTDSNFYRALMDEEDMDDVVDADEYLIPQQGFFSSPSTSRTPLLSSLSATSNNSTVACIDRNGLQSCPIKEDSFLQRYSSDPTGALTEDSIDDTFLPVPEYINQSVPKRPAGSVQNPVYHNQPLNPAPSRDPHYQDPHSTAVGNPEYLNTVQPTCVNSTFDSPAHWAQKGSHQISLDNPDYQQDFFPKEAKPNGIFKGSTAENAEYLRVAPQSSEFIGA
# methodSummary: Inhibitory activity against the kinase activity of mutant EGFR (L858R) protein (Test Example 2)
# experimentalSetup: ATP 5 μM, reaction 1 hour, HTRF KinEASE-TK
measurementLabel: pIC50
Note on units: pIC50 is unitless, being -log10 of a concentration expressed in mol/L.

Task item: // output pIC50; input COc1cc(N2CCC(N3CCN(C)CC3)CC2)ccc1Nc1ncnc(Nc2ccccc2S(=O)(=O)N(C)C)n1 ; system Mutant EGFR (L858R) protein (Homo sapiens, UniProt P00533, L858R)
Reply: 7.01

Task item: Recall the reported pIC50 of COc1cc(N2CCC(N3CCN(C)CC3)CC2)ccc1Nc1ncnc(Nc2ccccc2S(=O)(=O)C(C)C)n1 when tested on Mutant EGFR (L858R) protein (Homo sapiens, UniProt P00533, L858R).
Reply: 6.92

Task item: Quote Mutant EGFR (L858R) protein (Homo sapiens, UniProt P00533, L858R) pIC50 for entry CCNS(=O)(=O)c1ccccc1Nc1ncnc(Nc2ccc(N3CCC(N4CCN(C)CC4)CC3)cc2OC)n1 .
Reply: 7.00

* * *

Consider the following molecules and their measured pIC50 readings.
# assayedSystem: EML4-ALK fusion protein v1 (Homo sapiens, UniProt Q9UM73, D1529E/I1461V/K1491R)
# Construct: FLAG (N); made in house
# Sequence (Q9UM73 with tags, fused parts or gaps I1461V/K1491R/D1529E): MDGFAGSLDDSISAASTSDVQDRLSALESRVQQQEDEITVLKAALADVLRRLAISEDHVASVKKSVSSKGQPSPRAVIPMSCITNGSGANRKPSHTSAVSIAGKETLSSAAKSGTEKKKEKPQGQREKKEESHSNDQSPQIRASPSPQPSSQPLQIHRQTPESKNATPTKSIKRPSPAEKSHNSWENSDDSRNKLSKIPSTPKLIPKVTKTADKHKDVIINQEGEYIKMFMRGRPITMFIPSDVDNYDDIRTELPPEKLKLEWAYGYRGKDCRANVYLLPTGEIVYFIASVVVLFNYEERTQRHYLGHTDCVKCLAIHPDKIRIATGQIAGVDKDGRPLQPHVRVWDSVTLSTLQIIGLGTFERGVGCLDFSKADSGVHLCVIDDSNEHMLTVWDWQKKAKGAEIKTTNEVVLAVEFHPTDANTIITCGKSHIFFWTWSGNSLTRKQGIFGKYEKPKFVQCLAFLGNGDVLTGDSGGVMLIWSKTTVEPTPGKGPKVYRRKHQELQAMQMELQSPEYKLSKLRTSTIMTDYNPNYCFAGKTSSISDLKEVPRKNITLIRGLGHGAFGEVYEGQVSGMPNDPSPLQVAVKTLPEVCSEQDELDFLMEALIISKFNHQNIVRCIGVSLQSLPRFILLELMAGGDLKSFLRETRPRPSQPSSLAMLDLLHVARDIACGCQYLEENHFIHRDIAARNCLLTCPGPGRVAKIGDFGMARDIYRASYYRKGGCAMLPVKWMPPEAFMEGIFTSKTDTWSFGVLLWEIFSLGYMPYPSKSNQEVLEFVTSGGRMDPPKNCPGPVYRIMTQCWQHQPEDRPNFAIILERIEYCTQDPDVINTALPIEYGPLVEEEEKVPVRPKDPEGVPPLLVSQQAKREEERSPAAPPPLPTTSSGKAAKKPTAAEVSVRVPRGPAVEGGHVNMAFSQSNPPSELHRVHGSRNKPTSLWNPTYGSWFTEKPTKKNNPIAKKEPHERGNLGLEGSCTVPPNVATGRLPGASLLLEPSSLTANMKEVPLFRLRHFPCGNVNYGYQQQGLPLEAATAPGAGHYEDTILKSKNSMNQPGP
# methodSummary: Inhibitory activity against the kinase activity of EML4-ALK fusion protein v1 (Test Example 1)
# Format: biochemical
# experimentalSetup: ATP 100 μM, reaction 1 hour, HTRF KinEASE-TK
// pIC50: -log10(molar conc.)

Solved cases below.
# molecule, measuredNumber
data = [
    ("COc1cc(N2CCC(N3CCN(C)CC3)CC2)ccc1Nc1ncnc(Nc2ccccc2S(=O)(=O)N(C)C(C)C)n1", 7.31),
    ("COc1cc(N(C)C2CCN(C)CC2)ccc1Nc1ncnc(Nc2ccccc2S(=O)(=O)C(C)C)n1", 7.14),
    ("COc1cc(N2CCN(C)CC2)ccc1Nc1ncnc(Nc2ccccc2S(=O)(=O)C(C)C)n1", 7.54),
]

Task item: Identify measured pIC50 corresponding to COc1cc(N2CCC(N3CCN(C)CC3)CC2)ccc1Nc1ncnc(Nc2ccccc2S(=O)(=O)NC(C)C)n1
Reply: 7.40

Task item: Fill in pIC50 for record COc1cc(N2CCN(C3CCN(C)CC3)CC2)ccc1Nc1nc(Nc2ccccc2S(=O)(=O)C(C)C)c2ccccc2n1
Reply: 7.18

Task item: Indicate the recorded pIC50 value for this molecule: COc1cc(N2CCC(N3CCN(C)CC3)CC2)ccc1Nc1ncnc(Nc2ccccc2S(=O)(=O)C(C)C)n1
Reply: 7.77

Task item: Provide measured pIC50 value, entry: COc1cc(N2CCC(N3CCC(O)C3)CC2)ccc1Nc1ncnc(Nc2ccccc2S(=O)(=O)C(C)C)n1 (centres unmarked)
Reply: 7.59

* * *

# System: human non-small cell lung cancer cell line NCI-H2228 cells (EML4-ALK fusion protein-expressing cells)
# methodSummary: Inhibitory effect against anchorage-independent cell growth of NCI-H2228 cells (Test Example 3)
# Format: cell-based
# experimentalSetup: 120 h, spheroid plate, 5 days, CellTiter-Glo
measurementLabel: pIC50
Please report pIC50 as the negative decimal logarithm of the molar concentration, giving only the number.

Task item: Retrieve pIC50 measured for COc1cc(N2CCNCC2)ccc1Nc1ncnc(Nc2ccccc2S(=O)(=O)C(C)C)n1 and print it.
Reply: 7.03

Task item: Supply recorded pIC50 for COc1cc(N(C)C2CCN(C)CC2)ccc1Nc1ncnc(Nc2ccccc2S(=O)(=O)C(C)C)n1 here.
Reply: 6.80

Task item: Please report the measured pIC50 for COc1cc(N2CCC(N3CCN(C)CC3)CC2)ccc1Nc1ncnc(Nc2ccccc2S(=O)(=O)C(C)C)n1
Reply: 7.15

Task item: Give pIC50 for COc1cc(N2CCC(N3CCN(C)CC3)CC2)ccc1Nc1ncc(Cl)c(Nc2ccccc2S(=O)(=O)C(C)C)n1 [TAE684, reference compound]
Reply: 8.07

Data credit: patent US20130096100A1
